Examples of compounds with documented IC50 follow.
biological target: human plasma protein factor Xa (Homo sapiens); construct: measure proteolytic activity of the enzyme (factor Xa); test: Factor Xa IC50 determination (cleavage of chromogenic substrate S-2765); settings: fXa 1 nM, S-2765 100 μM, Tris buffered saline pH 7.4, room temperature
Sequence (P00742 235-488 limits assumed): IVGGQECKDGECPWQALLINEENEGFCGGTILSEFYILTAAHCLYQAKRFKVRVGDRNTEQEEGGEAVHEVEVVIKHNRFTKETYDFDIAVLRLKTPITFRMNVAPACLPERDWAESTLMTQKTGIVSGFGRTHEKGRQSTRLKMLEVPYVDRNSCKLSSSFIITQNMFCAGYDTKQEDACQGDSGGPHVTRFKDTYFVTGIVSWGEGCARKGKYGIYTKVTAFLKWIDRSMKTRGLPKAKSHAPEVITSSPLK
Sequence (P00742 41-179 partner limits assumed): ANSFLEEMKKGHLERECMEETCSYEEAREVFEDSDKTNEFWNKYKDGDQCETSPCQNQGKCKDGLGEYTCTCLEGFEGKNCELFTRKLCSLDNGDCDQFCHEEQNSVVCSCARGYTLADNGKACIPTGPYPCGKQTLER

>  <COMPOUND>
N=C(c1ccc(NC(=O)C(NC(=O)Nc2ccc(Cl)cc2)c2ccccc2F)cc1)N1CCCCC1 (stereo not shown) [Example 42]

>  <IC50>
≤ 100 nM

$$$$
>  <COMPOUND>
CN1CCN=C1c1ccc(NC(=O)C(NC(=O)Nc2ccc(Cl)cc2)c2ccc3c(c2)OCO3)cc1 (stereo not shown) [Example 76]

>  <IC50>
≤ 100 nM

$$$$
>  <COMPOUND>
O=C(Nc1ccc(Cl)cc1)NC(C(=O)Nc1ccc(-c2cc[n+]([O-])cc2)cc1)c1ccccc1Br (stereo not shown) [Example 78]

>  <IC50>
100 to 500 nM

$$$$
>  <COMPOUND>
C#CCN(C)C(=N)c1ccc(NC(=O)C(NC(=O)Nc2ccc(Cl)cc2)c2ccccc2)c(F)c1 (stereo not shown) [Example 36]

>  <IC50>
≤ 100 nM

$$$$
>  <COMPOUND>
CN(C)C(=N)c1ccc(NC(=O)C(NC(=O)Nc2ccc(Cl)cc2)c2ccccc2I)cc1 (stereo not shown) [Example 116]

>  <IC50>
≤ 100 nM

$$$$
>  <COMPOUND>
CN1CCN=C1c1ccc(NC(=O)C(CC(=O)N2CCCCCC2)NC(=O)Nc2ccc(Cl)cc2)cc1 (stereo not shown) [Example 68]

>  <IC50>
≥ 500 nM

$$$$
>  <COMPOUND>
O=C(Nc1ccc(Cl)cc1)NC(C(=O)NCC1CCN(c2ccncc2)CC1)c1ccccc1Cl (stereo not shown) [Example 105]

>  <IC50>
≤ 100 nM

$$$$
